Data origin, for the record: the nanobody polyreactivity screen of Harvey et al. (2022)

PROCEDURE_SUMMARY: yeast display, Sf9 membrane polyspecificity reagent, FACS + sequencing; frameworks hold sequencing errors
RECORDED_METRIC: polyreactivity (PSR sort gate)

SEQUENCE_RECORD: QVQLVESGGGLFQAGGSLRLSCAASGLTFYRYVMGWYRQAPGKERELVAAISDSGGSTYYADSVKGRFTISRDNAKNTVYLQMNSLKPEDTAVYYCAAEAPSFVYYSRYDYWGQGTQVTVSS
RECORDED_METRIC: polyreactivity (PSR sort gate)
EXPERIMENTAL_VALUE: high polyreactivity
--
SEQUENCE_RECORD: QVQLQESGGGLVQAGGSLRLSCAASGSIFKVVDMGLYRQAPGKEREFVATNGEGGNTYSADSVKGRFTISRDNAKNTVYRQMNSLKPEATAVYFYAVVLGTSYRYTYWGQGTQVTVSS
RECORDED_METRIC: polyreactivity (PSR sort gate)
EXPERIMENTAL_VALUE: low polyreactivity
--
SEQUENCE_RECORD: QVQLVESGGGLVQAGGSLRLSCAASGRTFERYAMGWYRQAPGKERELVATITRRGGSTYYADSVKGRFTISRDNAKNTVYLQMNSLKPEDTAVYYCNADNQAYRIYARGYWGQGTQVTVSS
RECORDED_METRIC: polyreactivity (PSR sort gate)
EXPERIMENTAL_VALUE: high polyreactivity
--
SEQUENCE_RECORD: QVQHVESVGGLDQAGGSLRLSSAASGRTFYLYAMGWYRQATGKEREFVADINSSGGSTYYADSVKGRFTISRDNAKNTVYLQMNSLKPEDTAVYYCAAYPIPRGRDYWGQGTQVTVSS
RECORDED_METRIC: polyreactivity (PSR sort gate)
EXPERIMENTAL_VALUE: low polyreactivity
--
SEQUENCE_RECORD: QVQLVESGGGLVQAGGSLRLSCAASGSTFILNDMGWYRQAPGKERELVAAIDWGDSTTYYADSVKGRFTISRDNAKNTVYLQMNSLKPEDTAVYYCAADYAVSAFTRYPPTEYWGQGTQVTVSS
RECORDED_METRIC: polyreactivity (PSR sort gate)
EXPERIMENTAL_VALUE: high polyreactivity
--
SEQUENCE_RECORD: QVQLEESGGGLVQAGGSLRLSCAASGRTFTVYAMGWYRQAPGKERELVAGIRRGDSTYYADSVKGRFTISRDNAKNTVYLQMNSLKPEDTAVYYCAARPAGYGHYKYYYWGQGTQVTVSS
RECORDED_METRIC: polyreactivity (PSR sort gate)
EXPERIMENTAL_VALUE: high polyreactivity
--
SEQUENCE_RECORD: QVQLVESGAGLVQAGGRLRLSCAASGRIFIRNAMGWSRQAPGKERELVAAIDSVGSTNYADSVKGRFTISRDNAKNTVYLQLNSLKPEETAVYYCAARGWKYASPYWGYYYWGQGSQVTVSS
RECORDED_METRIC: polyreactivity (PSR sort gate)
EXPERIMENTAL_VALUE: low polyreactivity
--
SEQUENCE_RECORD: QVQLVESGGGLVQAGGSLRLSCDASGRIFRYNSMGWYRQAPGKEREFVAAITWRGGSTYYADSVKGRFTISRDNAKYNVYFQMNSLKPEDTAVYYCATRSPFGAAYEYGYWGQGTQVTVSS
RECORDED_METRIC: polyreactivity (PSR sort gate)
EXPERIMENTAL_VALUE: high polyreactivity
--
SEQUENCE_RECORD: QVQLVESGGGLVQAGGSLRLSCAASGSTFKKYAMGWYRQAPGKERELVATISKNGGSTYYADSVNGRFTISRDNAKNTVYLQMNSLKPEDTAVYYCATRWWYYRTWYDYWGQGTQVTVSS
RECORDED_METRIC: polyreactivity (PSR sort gate)
EXPERIMENTAL_VALUE: high polyreactivity
--
SEQUENCE_RECORD: QVQLVESGGGLVQAGGSLRLSCAASGSIFKANAMGWYRQAPGKESELVATITSSGTRTYYADSVKGRFTISRDNAKNTVYLQMNSLKPEDTAVYYCNARAYPYQRGRYGYWGQGTQVTVSS
RECORDED_METRIC: polyreactivity (PSR sort gate)
EXPERIMENTAL_VALUE: high polyreactivity
--
SEQUENCE_RECORD: QVQLVESGGGLVQAGGSLRLSCAASGFTFHNNVMGWYRQATGKERELVATISKSGGSTYYADSVKGRFTISRDNAKNTVYLQMNSLKPEDTAVYYCARRYRDYDYWGQGTQVTVSS
RECORDED_METRIC: polyreactivity (PSR sort gate)
EXPERIMENTAL_VALUE: high polyreactivity
--
SEQUENCE_RECORD: QVQLVESGGGLVQAGGSLRLSCAASGSIFSGNTMGCYRQAPGKERELVAAISGRGSNTYYADSVKGRFTISRDNAKNTVYLQMNSLKPEDTAVYYCAGPWVVRRTAYDYWGQGTQVTVSS
RECORDED_METRIC: polyreactivity (PSR sort gate)
EXPERIMENTAL_VALUE: high polyreactivity
--
SEQUENCE_RECORD: QVQLVESGGGLVQAGGSLRLSCAASGRTIGGYAMGWYRQAPGKEREMVAAINYSGGTTYYADSVKGRFTISRDNAKNTVYLQMNSLKPEDTAVYYCIRDYHSESGNPGYQYGYWGQGTQVTVSS
RECORDED_METRIC: polyreactivity (PSR sort gate)
EXPERIMENTAL_VALUE: high polyreactivity
--
SEQUENCE_RECORD: QVQLVESGGGLVQAGGRLRLSCAASGRIFDANVMGWYRQAPGKERELVAAISSGGRTKYADSVKGRFTISRDNAKNNVYLQMNSLKPEDTAVYYCAKKHSPLYDYWGQGTQVTVSS
RECORDED_METRIC: polyreactivity (PSR sort gate)
EXPERIMENTAL_VALUE: low polyreactivity
--
SEQUENCE_RECORD: QVQLVESGGGLVQAGGSLRLSCAASGSTFNAYAMGWNRQAPGKERELVAVISSSGGRTYYADSVKGRFTISRDNAKNTVYLQMNSLKPEDTAVYYCNADVKYRYNHWGQGTQVTVSS
RECORDED_METRIC: polyreactivity (PSR sort gate)
EXPERIMENTAL_VALUE: high polyreactivity
--
SEQUENCE_RECORD: QFQLVESGGGLVQAGGSLRLSCAASGSTFIYYTMGWYRQAPGKERELVAAIPSSGGSTYYADSVKGRFTISRDNAKNTVYFQMNSLKPEDTAVYYCAADGTYIKFAKLYRRYDYWGQGTQVTVSS
RECORDED_METRIC: polyreactivity (PSR sort gate)
EXPERIMENTAL_VALUE: low polyreactivity
--
SEQUENCE_RECORD: QVQLVESGGGLVQAGGSLRLSCPASGIIFDRNAMGWYRQAPVKERELVAAITGSGGSTYYADSVKGRFTISRDNAKNTVYLQMNSLKPEDTAVYYCAATYLSRWTLYDYWGQGTQVTVSS
RECORDED_METRIC: polyreactivity (PSR sort gate)
EXPERIMENTAL_VALUE: high polyreactivity
--
SEQUENCE_RECORD: QVQLVESGGGLVQAGGSLRLSCAASGRSFPWYGMGWYRQAPGKERELVAAISRTGGNTYYADSVKGRFTISRDNAKNTVYLQMNSLKPEDTAVYYCIAGYYSNRSYFYDYGYWGQGTQVTVSS
RECORDED_METRIC: polyreactivity (PSR sort gate)
EXPERIMENTAL_VALUE: high polyreactivity
--
SEQUENCE_RECORD: QVQRVEEGRGLVQAGGTLRISCAASGSIFNQYAMGWYRHAPGQERELVAAITASGGSTYYAVSVKGRFTISRDNAKKTVYLQMNCLKPEDPAVYYCAKVELRDSAELGSDEYDYWGQGTQVTVSS
RECORDED_METRIC: polyreactivity (PSR sort gate)
EXPERIMENTAL_VALUE: low polyreactivity
--
SEQUENCE_RECORD: QVQLVESGGGLVQAGGSLRLSCAASVRTSSKYALGWYRQAPGKERELVAGISASGTRTYYADSVKGRFTISRDNAKNTVYLQMNSLKPEDTAVYYCATSFFWYYYWGQGTQVTVSS
RECORDED_METRIC: polyreactivity (PSR sort gate)
EXPERIMENTAL_VALUE: high polyreactivity
--
SEQUENCE_RECORD: QVQVVESGGGFVQAGGSLSLSCAASGSTFPYYVMGCYREAPGKERELVAAISGSGTRTYYADSVKGRFTISRDNAKNTVYLQMNSLKPEDTAVYYCAARKYPQGFDYWGQGTQVTVSS
RECORDED_METRIC: polyreactivity (PSR sort gate)
EXPERIMENTAL_VALUE: low polyreactivity
